test system: Streptococcus pyogenes, ATCC 700294; assay: Minimal inhibitory concentration assay (microbroth dilution); type: cell-based; details: Streptococcus pyogenes, ATCC700294; read-out: Minimal Inhibitory Concentrations S. pyogenes ATCC 700294
*1 amine or outer side, *2 acyl side, *3 side chain or, on linkers, in order; H or OH if unused. Where a SMILES comes first, the peptide text is derived from it. Bridges are numbered along the chain shown (N, C = ends). [ ]: non-standard residue; d: D form. The star is where a group is joined. Phe(3,5-F2) = N[C@@H](Cc1cc(F)cc(F)c1)C(=O)O; Pro(4S-Me) = C[C@@H]1CN[C@H](C(=O)O)C1; NH(4-Et-phenyl) = CCc1ccc(N*)cc1; NMeT = CN[C@H](C(=O)O)[C@@H](C)O; aThr = C[C@H](O)[C@H](N)C(=O)O; CO = O=C([*:1])[*:2]
measure-name: MIC (µM)
Return type: number; implicit unit µM.

A selection of reference data follows.
C[C@H]1CC2C(=O)OC[C@H](NC(=O)[C@H](Cc3ccccc3)NC(=O)Nc3ccc(OC(F)(F)F)cc3)C(=O)N3CCCC3C(=O)N3CCCCC3C(=O)N[C@@H](C)C(=O)N2C1 (stereo partly drawn) [Compound 44]	0.2
C[C@@H]1C[C@H]2C(=O)OC[C@H](NC(=O)[C@H](Cc3cc(F)cc(F)c3)NC(=O)Nc3ccc(OC(F)(F)F)cc3)C(=O)N3CCC[C@H]3C(=O)N3CCCC[C@H]3C(=O)N[C@@H](C)C(=O)N2C1 [Compound 13]	0.15

QUERY: I am curious: what MIC value has been reported for CCc1ccc(NC(=O)N[C@@H](Cc2cc(F)cc(F)c2)C(=O)N[C@@H]2C(=O)N3CCC[C@H]3C(=O)N(C)[C@@H]([C@@H](C)O)C(=O)N[C@@H](C)C(=O)N3C[C@@H](C)C[C@H]3C(=O)O[C@H]2C)cc1 [Compound 37] ({NH(4-Et-phenyl)-CO}-[Phe(3,5-F2)][aThr]P[NMeT]A[Pro(4S-Me)]; ester 2-C) ?
RESULT: 0.1
